EC50 reference
biological target: κ opioid receptor (Homo sapiens (Human), UniProt P41145); experiment: κ-opioid receptor [35S]GTPγS functional assay, HEK-293 or CHO cells; format: biochemical; details: GTPγS

Examples from the recorded data:
{"molecule": "COc1ccc2c(c1)[C@@]13CCNC[C@H]1[C@@H](C2)N(CC1CC1)CC3 [Compound 10]", "experimental_target": "κ opioid receptor (Homo sapiens (Human), UniProt P41145)", "value_measured": "2180 nM"}
{"molecule": "O=C1C[C@]23CCN(CC4CC4)[C@H](Cc4ccc(O)cc42)[C@@H]3CN1Cc1ccc(O)cc1 [Compound 5]", "experimental_target": "κ opioid receptor (Homo sapiens (Human), UniProt P41145)", "value_measured": "102 nM"}
{"molecule": "COc1ccc2c(c1)[C@]13CCN(CC4CC4)[C@H](C2)[C@@H]1CNC(=O)C3 [Compound 3]", "experimental_target": "κ opioid receptor (Homo sapiens (Human), UniProt P41145)", "value_measured": "435 nM"}
{"molecule": "O=C(O)CN1C[C@H]2[C@H]3Cc4ccc(O)cc4[C@@]2(CCN3CC2CC2)CC1=O [Compound 8]", "experimental_target": "κ opioid receptor (Homo sapiens (Human), UniProt P41145)", "value_measured": "14.9 nM"}

Measured EC50, NC(=O)CN1C[C@H]2[C@H]3Cc4ccc(O)cc4[C@@]2(CCN3CC2CC2)CC1=O [Compound 4] : 80.8 nM

Measured EC50, NC(=O)CN1CC[C@]23CCN(CC4CC4)[C@H](Cc4ccc(O)cc42)[C@@H]3C1 [Compound 11] : 5.25 nM

Measured EC50, O=C1C[C@]23CCN(CC4CC4)[C@H](Cc4ccc(O)cc42)[C@@H]3CN1 [Compound 7] : 5.1 nM

Measured EC50, C[C@H](N)C(=O)N1CC[C@]23CCN(CC4CC4)[C@H](Cc4ccc(O)cc42)[C@@H]3C1 [Compound 14] : 1.98 nM
